test system: MS2 coat protein; assay: apparent Kd, MS2 coat protein; higher = weaker binding; RNA-MaP array; FMN 200 µM where present; conditions: designed as: OFF switch for flavin mononucleotide; no ligand
Tag: 1 if measured apparent Kd is not below 30 nM, -1 if it is.

# sequence_chain, category_label
measured = [
    ("UAGGGCUUGGGCAGAAGGGUUACAUGAGGAUCACCCAUGUACAGAAGGAGAGCCUUGGGAAAGCUCUAGGAUAUGUCUAUGGGU", -1),
    ("AAGAAUAGAAAGAUUAAUAUGAAUACAUGAGGAUCACCCAUGUAGGAUAUGCAGCUGAAUCAGCUGCAGAAGGACAAAAUAAAU", -1),
]

Problem: Record GGUAGACAUGAGGAUCACCCAUGUGAGGAUAUCGUCAUAGAUGCAAAAGCAUCUAUGACGAGAAGGUACAUGCC ; criterion: apparent Kd no lower than 30 nM. Met?
Result: 1

Problem: Exam item: decide whether the reported apparent Kd for UAUAUAUAGUAAGGAUAUGUAAUUGUUUUAUAAACAGAAGGUACUGACAUGAGGAUCACCCAUGUUUUAGUGUGGGCAUGUAGA is at least 30 nM.
Result: 1

Problem: Please indicate if the recorded apparent Kd for UUAUUAUGUGUAGGAUAUGCAUAUUAUUAUUAUGCAGAAGGACAUGAGGAUCACCCAUGUAUAUUAUUAUUAUAUAUUAUAUGU meets or exceeds 30 nM.
Result: -1

Problem: Hi, just wondering whether UGUUCUAUGUAGAAGGCCCAUAUCUGUUUUUAGGGAGGAUAUACAUGAGGAUCACCCAUGUGUAGAGCUGGUGGACUGGUCAGC shows apparent Kd of 30 nM or higher.
Result: -1

Problem: hey, is apparent Kd for this one >= 30 nM? CGUUUGUAAGGAUAUAGCCACAUUACGAAUAAGUAGUGUGGCUAGAAGGUACAUGAGGAUCACCCAUGUAUGGG
Result: 1
